Listed below: pIC50 values for each entry.
Molecular target: HLA-A*02:06
Experiment: IEDB peptide-MHC binding, purified MHC/competitive/radioactivity; bounds were set here for any values at or beyond the usual limits of such assays
Details: source organism: Influenza A virus
As a rule, pIC50 stands for the negative log10 of the concentration, concentration in M.

Would you please look over these solved cases?
{"entry_sequence": "AAMDDFQLI", "recorded_result": 7.00}
{"entry_sequence": "MQALQLLLEV", "recorded_result": 7.32}
{"entry_sequence": "SSLENFRAYV", "recorded_result": 7.36}
{"entry_sequence": "CVNGSCFTV", "recorded_result": 5.70}
{"entry_sequence": "FVETLARSI", "recorded_result": 5.36}

Query: Which pIC50 value belongs to GILHLILWIL ?
Response: 5.60

Query: Moving on to SCINRCFYV
Response: 6.65

Query: Also MQIAILVTTV ?
Response: 7.21

====

Measured log10(IC50) of individual entries
Target: HLA-A*02:01
Assay: IEDB peptide-MHC binding, purified MHC/competitive/radioactivity; bounds were set here for any values at or beyond the usual limits of such assays
Conditions: source organism: Vaccinia virus WR
log10 IC50, nM

# example entries with known answers
{"entry_sequence": "NVIGLIVIL", "log10(IC50)": 2.53}
{"entry_sequence": "MLFVNDLMTM", "log10(IC50)": 1.71}
{"entry_sequence": "FLLPLTSLVI", "log10(IC50)": -0.08}
{"entry_sequence": "RLIVLFEVFV", "log10(IC50)": 2.01}
{"entry_sequence": "FIALWIPDL", "log10(IC50)": 0.23}

--- query ---
Query: Record lookup: for HLA-A*02:01, what log10(IC50) belongs to KASTISWMM ?
Response: 3.15

====

Target: HLA-A*02:06
Test: IEDB peptide-MHC binding, cellular MHC/competitive/fluorescence; bounds were set here for any values at or beyond the usual limits of such assays
Details: source organism: Mammarenavirus guanaritoense
Recorded IC50 by entry

{"entry_sequence": "YCLDFLFDV", "system_tested": "HLA-A*02:06", "IC50": "≥ 70 µM"}
{"entry_sequence": "MNNVVQALT", "system_tested": "HLA-A*02:06", "IC50": "≥ 70 µM"}

As a next step, examine the sequence that follows.
Query: Tell me the measured IC50 of KNAGYLVGR , please.
Response: ≥ 70 µM

====

Target: HLA-A*02:01
Assay: IEDB peptide-MHC binding, cellular MHC/competitive/fluorescence; bounds were set here for any values at or beyond the usual limits of such assays
Conditions: source organism: Vaccinia virus WR
Lab note: cut-off is 20 µM. Strictly less in IC50 is 1 (yes). Exactly 20 µM or more is 0 (no).

Worked cases, answers included:
{"entry_sequence": "ITETIPIGM", "cat": "0 (no)"}
{"entry_sequence": "EAFETQSGA", "cat": "0 (no)"}
{"entry_sequence": "VVSRHLTNDA", "cat": "0 (no)"}
{"entry_sequence": "VASDVCKKNL", "cat": "0 (no)"}
{"entry_sequence": "DTQQHPIVVL", "cat": "0 (no)"}

Query: Threshold test, IC50 < 20 µM: EIEEHMRQT
Response: 0 (no)

====

Target: HLA-A*68:02
Assay: IEDB peptide-MHC binding, purified MHC/competitive/radioactivity; bounds were set here for any values at or beyond the usual limits of such assays
Conditions: source organism: Vaccinia virus WR
# pIC50 listing for each entry below
Formally, pIC50 is defined as -log10 of the concentration c, with c in mol/L.

{"entry_sequence": "DTSNNIAEYI", "pIC50": 7.33}

Query: # pIC50 lookup, item LMIGNYFSGV
Response: 6.80

Query: Now consider DTLVKSGLT and answer again.
Response: 5.71

Query: Then YLLFNHFSV ?
Response: 7.41

Query: Follow-up entry: WLKDSAIMV
Response: 6.00

Query: Same question, AILHNIYRL this time
Response: 5.59

Query: Item: CTSEIQNVT
Response: 7.05

Query: One more sequence: MLTNAISSRV
Response: 7.00

Query: And the next one, MICCDSRIVV ?
Response: 7.57

Query: Next sequence up: CVDHPFIYVI
Response: 6.10
